Target: OE19 (3A1) (Homo sapiens, UniProt P30838)
Sequence (P30838 1-453): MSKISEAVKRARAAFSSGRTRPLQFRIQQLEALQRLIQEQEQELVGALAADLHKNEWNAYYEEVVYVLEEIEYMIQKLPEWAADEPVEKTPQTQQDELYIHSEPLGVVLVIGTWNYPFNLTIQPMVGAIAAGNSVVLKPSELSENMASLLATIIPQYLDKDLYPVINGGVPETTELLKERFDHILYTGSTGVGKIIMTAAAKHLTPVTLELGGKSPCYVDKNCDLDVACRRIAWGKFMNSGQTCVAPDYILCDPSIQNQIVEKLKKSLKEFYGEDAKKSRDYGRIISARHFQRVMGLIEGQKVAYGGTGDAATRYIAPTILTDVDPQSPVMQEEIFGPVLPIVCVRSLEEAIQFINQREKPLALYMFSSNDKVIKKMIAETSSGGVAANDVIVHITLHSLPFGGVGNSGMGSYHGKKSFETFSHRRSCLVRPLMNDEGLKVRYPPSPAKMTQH
Assay: Cellular ALDEFLUOR assay in OE19 cells (preferential ALDH3A1 expression)
Grouping by measured AC50 is done with the following cut points: bucket A: < 700 nM; bucket B: ≥ 700 nM and < 5000 nM; bucket C: ≥ 5000 nM

{"columns": ["Compound structure string", "Qualitative label"],
 "data": [
  ["O=C(Nc1ccc(CNC(=O)c2csc(N3CCN(c4cccc(C(F)(F)F)c4)CC3)n2)cc1)c1ccncc1", "bucket C"],
  ["Cc1cccc(CNC(=O)c2csc(N3CCN(c4cccc(C#N)c4)CC3)n2)c1", "bucket C"],
  ["O=C(NCc1ccc(S(F)(F)(F)(F)F)cc1)c1csc(N2CCN(c3cccc(C(F)(F)F)c3)CC2)n1", "bucket B"],
  ["O=C(NCc1ccc(C(F)(F)F)c(Cl)c1)c1csc(N2CCN(c3cccc(C(F)(F)F)c3)CC2)n1", "bucket A"],
  ["Cc1cccc(CNC(=O)c2csc(N3CCN(c4ccc(Cl)c(Cl)c4)CC3)n2)c1", "bucket B"],
  ["O=C(NCc1ccc(N2CCNC2=O)cc1)c1csc(N2CCN(c3cccc(C(F)(F)F)c3)CC2)n1", "bucket B"],
  ["CCc1ccc(N2CCN(c3nc(C(=O)NCc4cccc(C)c4)cs3)CC2)cc1Cl", "bucket B"],
  ["CC(=O)c1cccc(CNC(=O)c2csc(N3CCN(c4cccc(C(F)(F)F)c4)CC3)n2)c1", "bucket A"],
  ["COc1ccc(F)c(N2CCN(c3nc(C(=O)NCc4cccc(C)c4)cs3)CC2)c1", "bucket C"],
  ["C[S+](=O)([O-])c1ccc(CNC(=O)c2csc(N3CCN(c4cccc(C(F)(F)F)c4)CC3)n2)cc1", "bucket A"],
  ["O=C(NCc1cccc(N2CCCC2=O)c1)c1csc(N2CCN(c3cccc(C(F)(F)F)c3)CC2)n1", "bucket C"],
  ["Cc1cccc(CNC(=O)c2csc(N3CCN(c4ccc(C#N)cc4)CC3)n2)c1", "bucket B"],
  ["N#CSc1ccc(NC(=O)c2csc(N3CCN(c4cccc(C(F)(F)F)c4)CC3)n2)c(F)c1", "bucket A"]
]}
